experiment: Pharmacokinetics in humans, MRTX1133 formulation, oral, single and multiple doses; format: in vivo; conditions: human, plasma, po, 200 mg, single oral dose of 200 mg, fasted; 2 h; mean of subjects; read-out: Plasma concentration, Mean
Measure: concentration at 2 h (ng/mL)
Numbers only, in ng/mL.

Ask: Returns the measured concentration at 2 h for the input compound. Input: C#Cc1c(F)ccc2cc(O)cc(-c3ncc4c(N5C[C@H]6CC[C@@H](C5)N6)nc(OC[C@@]56CCCN5C[C@H](F)C6)nc4c3F)c12
Result: 39.3

----------
assay: Pharmacokinetics in humans, MRTX1133 formulation, oral, single and multiple doses; format: in vivo; conditions: human, plasma, po, 400 mg, single oral dose of 400 mg, fasted; 6 h; mean of subjects; read-out: Plasma concentration, Mean
Measure: concentration at 6 h

Ask: Look up concentration at 6 h for this compound: C#Cc1c(F)ccc2cc(O)cc(-c3ncc4c(N5C[C@H]6CC[C@@H](C5)N6)nc(OC[C@@]56CCCN5C[C@H](F)C6)nc4c3F)c12 [MRTX1133]
Result: 34.5 ng/mL

----------
test: Pharmacokinetics in humans, MRTX1133 formulation, oral, single and multiple doses; type: in vivo; details: human, plasma, po, 400 mg, multiple oral doses of 400 mg BID, fasted; 1 h; mean of subjects; read-out: Plasma concentration, Mean
Measure: concentration at 1 h (ng/mL)
One number for each entry, in ng/mL.

Ask: # concentration at 1 h lookup, item C#Cc1c(F)ccc2cc(O)cc(-c3ncc4c(N5C[C@H]6CC[C@@H](C5)N6)nc(OC[C@@]56CCCN5C[C@H](F)C6)nc4c3F)c12 [MRTX1133]
Result: 85.9

----------
assay: Pharmacokinetics in humans, MRTX1133 formulation, oral, single and multiple doses; assay type: in vivo; conditions: human, plasma, po, 400 mg, single oral dose of 400 mg, fasted; geometric mean of subjects; read-out: T1/2, Geo Mean (converted)
Measure: half-life (min)
Answers are plain numbers, in min.

Ask: Request the reported half-life associated with C#Cc1c(F)ccc2cc(O)cc(-c3ncc4c(N5C[C@H]6CC[C@@H](C5)N6)nc(OC[C@@]56CCCN5C[C@H](F)C6)nc4c3F)c12
Result: 2000

----------
experiment: Pharmacokinetics in humans, MRTX1133 formulation, oral, single and multiple doses; type: in vivo; conditions: human, plasma, po, 800 mg, single oral dose of 800 mg, fasted; 1 h; mean of subjects; read-out: Plasma concentration, Mean
Measure: concentration at 1 h (ng/mL)
Give bare numbers, in ng/mL.

Ask: Name the recorded concentration at 1 h for C#Cc1c(F)ccc2cc(O)cc(-c3ncc4c(N5C[C@H]6CC[C@@H](C5)N6)nc(OC[C@@]56CCCN5C[C@H](F)C6)nc4c3F)c12 [MRTX1133] .
Result: 286

----------
experiment: Pharmacokinetics in humans, MRTX1133 formulation, oral, single and multiple doses; type: in vivo; conditions: human, plasma, po, 400 mg, single oral dose of 400 mg with a low-fat meal; geometric mean of subjects; read-out: AUC0-12, Geo Mean
Measure: AUC(0-t)

Ask: Param item = C#Cc1c(F)ccc2cc(O)cc(-c3ncc4c(N5C[C@H]6CC[C@@H](C5)N6)nc(OC[C@@]56CCCN5C[C@H](F)C6)nc4c3F)c12 ; retrieve measured AUC(0-t).
Result: 256 ng·h/mL

----------
assay: Pharmacokinetics in humans, MRTX1133 formulation, oral, single and multiple doses; assay type: in vivo; details: human, plasma, po, 800 mg, multiple oral doses of 800 mg BID, fasted; Geo Mean of subjects; read-out: Cmax
Measure: Cmax (ng/mL)
One number for each entry, in ng/mL.

Ask: # query: Cmax of entry C#Cc1c(F)ccc2cc(O)cc(-c3ncc4c(N5C[C@H]6CC[C@@H](C5)N6)nc(OC[C@@]56CCCN5C[C@H](F)C6)nc4c3F)c12 [MRTX1133]
Result: 99.5

----------
Assay: Pharmacokinetics in humans, MRTX1133 formulation, oral, single and multiple doses
Format: in vivo
Conditions: human, plasma, po, 200 mg, multiple oral doses of 200 mg BID, fasted; 0 h; mean of subjects; read-out: Plasma concentration, Mean
Description: The pharmacokinetics [PK] of the MRTX1133 formulation after oral administration has been evaluated in 25 subjects across 3 escalating dose frequencies under fasting conditions (200 mg twice daily [BID], 400 mg BID, and 800 mg BID), as well as evaluation of 400 mg BID when administered with a low-fat meal (i.e., under fed conditions). The mean (+standard deviation) single-dose and multiple-dose pharmacokinetic profiles of the evaluated doses are presented in FIG. 9 and FIG. 10, respectively. […]
Measure: concentration at 0 h (ng/mL)
Numbers only, in ng/mL.

Ask: Suppose we examine the molecule C#Cc1c(F)ccc2cc(O)cc(-c3ncc4c(N5C[C@H]6CC[C@@H](C5)N6)nc(OC[C@@]56CCCN5C[C@H](F)C6)nc4c3F)c12 ; what concentration at 0 h value has been reported?
Result: 5.33

----------
assay: Pharmacokinetics in humans, MRTX1133 formulation, oral, single and multiple doses; assay type: in vivo; conditions: human, plasma, po, 800 mg, single oral dose of 800 mg, fasted; 8 h; mean of subjects; read-out: Plasma concentration, Mean
Measure: concentration at 8 h

Ask: Which concentration at 8 h is listed for C#Cc1c(F)ccc2cc(O)cc(-c3ncc4c(N5C[C@H]6CC[C@@H](C5)N6)nc(OC[C@@]56CCCN5C[C@H](F)C6)nc4c3F)c12 [MRTX1133] ?
Result: 49.7 ng/mL

----------
assay: Pharmacokinetics in humans, MRTX1133 formulation, oral, single and multiple doses; assay type: in vivo; details: human, plasma, po, 800 mg, multiple oral doses of 800 mg BID, fasted; Geo Mean of subjects; read-out: AUC0-12
Measure: AUC(0-t) (ng·h/mL)
Give bare numbers, in ng·h/mL.

Ask: Entry C#Cc1c(F)ccc2cc(O)cc(-c3ncc4c(N5C[C@H]6CC[C@@H](C5)N6)nc(OC[C@@]56CCCN5C[C@H](F)C6)nc4c3F)c12 [MRTX1133] has what AUC(0-t)?
Result: 347

----------
assay: Pharmacokinetics in humans, MRTX1133 formulation, oral, single and multiple doses; format: in vivo; settings: human, plasma, po, 400 mg, single oral dose of 400 mg, fasted; 96 h; mean of subjects; read-out: Plasma concentration, Mean
Measure: concentration at 96 h (ng/mL)
Give bare numbers, in ng/mL.

Ask: Given the compound C#Cc1c(F)ccc2cc(O)cc(-c3ncc4c(N5C[C@H]6CC[C@@H](C5)N6)nc(OC[C@@]56CCCN5C[C@H](F)C6)nc4c3F)c12 , what is its reported concentration at 96 h?
Result: 0.538

----------
test: Pharmacokinetics in humans, MRTX1133 formulation, oral, single and multiple doses; type: in vivo; conditions: human, plasma, po, 200 mg, multiple oral doses of 200 mg BID, fasted; 2 h; mean of subjects; read-out: Plasma concentration, Mean
Measure: concentration at 2 h (µg/mL)
Give bare numbers, in µg/mL.

Ask: # query: concentration at 2 h of entry C#Cc1c(F)ccc2cc(O)cc(-c3ncc4c(N5C[C@H]6CC[C@@H](C5)N6)nc(OC[C@@]56CCCN5C[C@H](F)C6)nc4c3F)c12 [MRTX1133]
Result: 0.0201

----------
test: Pharmacokinetics in humans, MRTX1133 formulation, oral, single and multiple doses; format: in vivo; settings: human, plasma, po, 400 mg, multiple oral doses of 400 mg BID with a low-fat meal; geometric mean of subjects; read-out: AUC0-last, Geo Mean
Measure: AUC(0-t)
Reply with a number, then the unit it belongs to.

Ask: I'd like to know its AUC(0-t). The molecule in question is C#Cc1c(F)ccc2cc(O)cc(-c3ncc4c(N5C[C@H]6CC[C@@H](C5)N6)nc(OC[C@@]56CCCN5C[C@H](F)C6)nc4c3F)c12
Result: 310 ng·h/mL

----------
assay: Pharmacokinetics in humans, MRTX1133 formulation, oral, single and multiple doses; format: in vivo; details: human, plasma, po, 400 mg, multiple oral doses of 400 mg BID, fasted; 4 h; mean of subjects; read-out: Plasma concentration, Mean
Measure: concentration at 4 h (ng/mL)
One number for each entry, in ng/mL.

Ask: Sample C#Cc1c(F)ccc2cc(O)cc(-c3ncc4c(N5C[C@H]6CC[C@@H](C5)N6)nc(OC[C@@]56CCCN5C[C@H](F)C6)nc4c3F)c12 — what was its concentration at 4 h?
Result: 77.3

----------
experiment: Pharmacokinetics in humans, MRTX1133 formulation, oral, single and multiple doses; format: in vivo; details: human, plasma, po, 400 mg, single oral dose of 400 mg with a low-fat meal; 72 h; mean of subjects; read-out: Plasma concentration, Mean
Measure: concentration at 72 h (ng/mL)
Answers are plain numbers, in ng/mL.

Ask: Look up concentration at 72 h for this molecule: C#Cc1c(F)ccc2cc(O)cc(-c3ncc4c(N5C[C@H]6CC[C@@H](C5)N6)nc(OC[C@@]56CCCN5C[C@H](F)C6)nc4c3F)c12 [MRTX1133]
Result: 2.13
